// values below are reported growth inhibition
# PROTOCOL_NOTES: NCI Yeast Anticancer Drug Screen. Data for the bub3 strain (AID 167)
# TEST_PARAMETERS: S. cerevisiae bub3 mutant strain, at 50.0 µM, active compounds read high
The panel holds about 79,000 compounds, 15% with a hit somewhere; the sample as a whole holds those more often.
Number only, in %; omit the unit.

As a guide, the following entries are already answered.
MOLECULE	ENDPOINT_VALUE
CCOC(=O)c1c(C(=O)OCC)c(C)n(/N=N/n2c(C)c(C(=O)OCC)c(C(=O)OCC)c2C)c1C	-1.45
CCOCCC(=N)OCC	4.2
CCCCN(CC)NC(=S)Nc1ccccc1	17.9
O=Cc1ccc(N2OC(c3ccc([N+](=O)[O-])cc3)C(c3ccc([N+](=O)[O-])cc3)C2c2ccc([N+](=O)[O-])cc2)cc1 (stereo unspecified)	0.95
N#CC(C(=O)/C(=N\Nc1nc(=S)[nH]n1N)C(C#N)c1ccc(Cl)cc1)c1ccc(Cl)cc1 (stereo unspecified)	-4.4

Consider the molecule shown here: O=C1CC(C(=O)O)C(C(Cl)(Cl)Cl)O1 (stereo unspecified) What is its recorded growth inhibition? -6.7

Consider the molecule shown here: `c1ccc2c[n+]3cc4ccccc4cc3cc2c1` What is its recorded growth inhibition? 33

Consider the molecule shown here: `N=C1C=C/[N+](=C\C=CCO)C([O-])=N1` What is its recorded growth inhibition? -43.4

Consider the molecule shown here: COC1=C(c2ccccc2)P(=O)(Cc2ccccc2)C(C)C1 (stereo unspecified) What is its recorded growth inhibition? 48.3

Consider the molecule shown here: `Cc1cc(NS(=O)(=O)c2ccc(NC(=O)c3ccc(Cl)c4c(Nc5ccc(S(=O)(=O)N=C(N)N)cc5)c5ccccc5nc34)cc2)no1` What is its recorded growth inhibition? 26.4
